Each entry below carries its reported binding signal.
Tested on: MBP-FoxP1dN (Mus musculus, UniProt P58462 326-579)
Sequence: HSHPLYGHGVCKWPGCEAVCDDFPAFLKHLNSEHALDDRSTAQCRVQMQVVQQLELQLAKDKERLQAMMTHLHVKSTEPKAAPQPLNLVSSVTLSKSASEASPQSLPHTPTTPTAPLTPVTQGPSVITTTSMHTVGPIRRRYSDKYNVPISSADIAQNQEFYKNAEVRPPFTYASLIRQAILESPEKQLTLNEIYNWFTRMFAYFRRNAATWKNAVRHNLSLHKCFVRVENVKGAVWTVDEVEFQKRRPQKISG
Assay method text: PD-seq (MBP pull-down with sequencing); 20 mM Tris-HCl pH 7.5, 100 mM NaCl, 1.5 mM MgCl2, 0.4 uM protein, 0.1 uM dsDNA library, 30 min, room temperature, amylose pull-down; high values mean tight binding
Recorded conditions: protein: recombinant; tags: His6-MBP; chain copies: 2; dsDNA, one strand shown
Whole data set: some 16,000 sequences, median “rpm ratio (pull-down/input)” near 0.94, cut for the highest 2% near 1.7. This is one part of a sample in which the highest values are shown more often than they occur.
Metric: binding signal

- GATGATTGTTCTCCCAGCTGATGAATTTGTACTCTCGAGTAAACAAATTTTCCTAATCTTTCTGTTCAAGCGCCATCTAC: 1.15 RPM ratio (pull-down/input)
- GATGATTGTTCTCCCAGCTGATGAATTTAACGCCTCGAGTAAACAAATTTTCCTAATCTTTCTGTTCAAGCGCCATCTAC: 0.91 RPM ratio (pull-down/input)
- GATGATTGTTCTCCCAGCTGATGAATTATACAGCTCGAGTAAACAAATTTTCCTAATCTTTCTGTTCAAGCGCCATCTAC: 1.03 RPM ratio (pull-down/input)
- GATGATTGTTCTCCCAGCTGATGAATTTGTGTACTCGAGTAAACAAATTTTCCTAATCTTTCTGTTCAAGCGCCATCTAC: 2.09 RPM ratio (pull-down/input)
- GATGATTGTTCTCCCAGCTGATGAATTTTTGTACTCGAGTAAACAAATTTTCCTAATCTTTCTGTTCAAGCGCCATCTAC: 1.14 RPM ratio (pull-down/input)
- GATGATTGTTCTCCCAGCTGATGAATTTTCTGTATCGAGTAAACAAATTTTCCTAATCTTTCTGTTCAAGCGCCATCTAC: 1.08 RPM ratio (pull-down/input)
- GATGATTGTTCTCCCAGCTGATGAATTGTGTATCTCGAGTAAACAAATTTTCCTAATCTTTCTGTTCAAGCGCCATCTAC: 1.67 RPM ratio (pull-down/input)

* * *

Tested on: MBP-FoxP1dN (Mus musculus, UniProt P58462 326-579)
Sequence: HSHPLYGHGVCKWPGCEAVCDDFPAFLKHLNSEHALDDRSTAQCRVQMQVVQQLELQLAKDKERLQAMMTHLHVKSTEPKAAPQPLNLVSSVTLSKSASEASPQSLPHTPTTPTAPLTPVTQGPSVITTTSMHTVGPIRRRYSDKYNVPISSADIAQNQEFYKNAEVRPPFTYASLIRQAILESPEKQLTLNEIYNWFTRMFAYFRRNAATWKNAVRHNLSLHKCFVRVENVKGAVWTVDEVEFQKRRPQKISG
Assay method text: PD-seq (MBP pull-down with sequencing); 20 mM Tris-HCl pH 7.5, 100 mM NaCl, 1.5 mM MgCl2, 0.4 uM protein, 0.1 uM dsDNA library, 30 min, room temperature, amylose pull-down; high values mean tight binding
Recorded conditions: protein: recombinant; tags: His6-MBP; chain copies: 2; dsDNA, one strand shown
Over roughly 16,000 sequences, “rpm ratio (pull-down/input)” has its median near 0.94; the highest 2% begin near 1.7. The list comes from a sample in which the highest values are over-represented; it also holds close analogues and randomly drawn sequences.
Metric: binding signal

- GATGATTGTTCTCCCAGCTGATGAATTTAAAACATCGAGTAAACAAATTTTCCTAATCTTTCTGTTCAAGCGCCATCTAC: 1.37 RPM ratio (pull-down/input)
- GATGATTGTTCTCCCAGCTGATGAATTTGCTGGGTCGAGTAAACAAATTTTCCTAATCTTTCTGTTCAAGCGCCATCTAC: 0.859 RPM ratio (pull-down/input)
- GATGATTGTTCTCCCAGCTGATGAATTAAACTCCTCGAGTAAACAAATTTTCCTAATCTTTCTGTTCAAGCGCCATCTAC: 0.846 RPM ratio (pull-down/input)
- GATGATTGTTCTCCCAGCTGATGAATTTCGAGTTTCGAGTAAACAAATTTTCCTAATCTTTCTGTTCAAGCGCCATCTAC: 0.851 RPM ratio (pull-down/input)
- GATGATTGTTCTCCCAGCTGATGAATTAAAAAAATCGAGTAAACAAATTTTCCTAATCTTTCTGTTCAAGCGCCATCTAC: 1.04 RPM ratio (pull-down/input)
- GATGATTGTTCTCCCAGCTGATGAATTCACCTACTCGAGTAAACAAATTTTCCTAATCTTTCTGTTCAAGCGCCATCTAC: 0.921 RPM ratio (pull-down/input)
- GATGATTGTTCTCCCAGCTGATGAATTAAACAACTCGAGTAAACAAATTTTCCTAATCTTTCTGTTCAAGCGCCATCTAC: 1.84 RPM ratio (pull-down/input)
- GATGATTGTTCTCCCAGCTGATGAATTTCAAACATCGAGTAAACAAATTTTCCTAATCTTTCTGTTCAAGCGCCATCTAC: 1.18 RPM ratio (pull-down/input)
- GATGATTGTTCTCCCAGCTGATGAATTCCATAAGTCGAGTAAACAAATTTTCCTAATCTTTCTGTTCAAGCGCCATCTAC: 0.896 RPM ratio (pull-down/input)
- GATGATTGTTCTCCCAGCTGATGAATTAAAACAATCGAGTAAACAAATTTTCCTAATCTTTCTGTTCAAGCGCCATCTAC: 2 RPM ratio (pull-down/input)
- GATGATTGTTCTCCCAGCTGATGAATTCTGTAAATCGAGTAAACAAATTTTCCTAATCTTTCTGTTCAAGCGCCATCTAC: 1.18 RPM ratio (pull-down/input)
- GATGATTGTTCTCCCAGCTGATGAATTTTGTTGTTCGAGTAAACAAATTTTCCTAATCTTTCTGTTCAAGCGCCATCTAC: 2.84 RPM ratio (pull-down/input)
- GATGATTGTTCTCCCAGCTGATGAATTTTTTTGTTCGAGTAAACAAATTTTCCTAATCTTTCTGTTCAAGCGCCATCTAC: 0.971 RPM ratio (pull-down/input)
- GATGATTGTTCTCCCAGCTGATGAATTGTAAACATCGAGTAAACAAATTTTCCTAATCTTTCTGTTCAAGCGCCATCTAC: 2.78 RPM ratio (pull-down/input)
- GATGATTGTTCTCCCAGCTGATGAATTTCTTTGTTCGAGTAAACAAATTTTCCTAATCTTTCTGTTCAAGCGCCATCTAC: 0.994 RPM ratio (pull-down/input)
